B1: CCDC6 (parent)
chain: ASVTIQARAEQEEEFISNTLFKKI

- Variants of: B1
- Experimental Details: protein stability index of a GFP-peptide fusion (GPS, HEK-293T) (PSI 1-6); higher = more stable;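 also: lentivirally expressed fusions sorted by FACS into six bins by GFP to DsRed ratio, PSI derived from sequencing read proportions per bin multiplied by bin number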
- Cond: c terminus: a fixed tail appended
The following variants are listed with their measured protein stability index values.
Respond with the number and no other words.

Before answering, review these 10 worked examples.
T4W
2.06
E12N
3.06
V3N
4.6
A1G
3.98
S2F
2.11
F21D
4.87
S17E
3.9
E13W
2.08
K22S
3.64
I16A
3.84

Data request: Endpoint output: protein stability index of `I5W` . Value?
Data returned: 3.66

Data request: Ok, now `F21A`
Data returned: 4.66

Data request: Try the variant `K23Y`
Data returned: 1.98

Data request: // next record `S2Y`
Data returned: 2.19

Data request: Same for `S2E`
Data returned: 4.11

Data request: Then `R8M` ?
Data returned: 3.12

Cited source for all entries: the supplement of paper PMC10567573
